- measuredTarget: Histone deacetylase 3/Nuclear receptor corepressor 2 (HDAC3/NCoR2) (Homo sapiens)
- Sequence (O15379 whole entry, the tested form may be a part): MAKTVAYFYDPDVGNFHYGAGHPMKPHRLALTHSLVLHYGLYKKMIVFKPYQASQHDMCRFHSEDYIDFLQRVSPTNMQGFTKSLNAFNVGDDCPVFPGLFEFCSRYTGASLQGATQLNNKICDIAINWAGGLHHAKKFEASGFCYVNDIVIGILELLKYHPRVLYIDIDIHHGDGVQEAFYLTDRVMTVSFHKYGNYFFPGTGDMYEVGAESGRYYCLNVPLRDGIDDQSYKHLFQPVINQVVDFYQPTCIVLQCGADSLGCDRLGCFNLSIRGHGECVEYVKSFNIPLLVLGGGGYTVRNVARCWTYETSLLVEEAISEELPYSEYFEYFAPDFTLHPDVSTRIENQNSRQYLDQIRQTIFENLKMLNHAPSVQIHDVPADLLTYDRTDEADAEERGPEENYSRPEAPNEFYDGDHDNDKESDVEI
- Sequence (Q9Y618 whole entry, further chain, the tested form may be a part): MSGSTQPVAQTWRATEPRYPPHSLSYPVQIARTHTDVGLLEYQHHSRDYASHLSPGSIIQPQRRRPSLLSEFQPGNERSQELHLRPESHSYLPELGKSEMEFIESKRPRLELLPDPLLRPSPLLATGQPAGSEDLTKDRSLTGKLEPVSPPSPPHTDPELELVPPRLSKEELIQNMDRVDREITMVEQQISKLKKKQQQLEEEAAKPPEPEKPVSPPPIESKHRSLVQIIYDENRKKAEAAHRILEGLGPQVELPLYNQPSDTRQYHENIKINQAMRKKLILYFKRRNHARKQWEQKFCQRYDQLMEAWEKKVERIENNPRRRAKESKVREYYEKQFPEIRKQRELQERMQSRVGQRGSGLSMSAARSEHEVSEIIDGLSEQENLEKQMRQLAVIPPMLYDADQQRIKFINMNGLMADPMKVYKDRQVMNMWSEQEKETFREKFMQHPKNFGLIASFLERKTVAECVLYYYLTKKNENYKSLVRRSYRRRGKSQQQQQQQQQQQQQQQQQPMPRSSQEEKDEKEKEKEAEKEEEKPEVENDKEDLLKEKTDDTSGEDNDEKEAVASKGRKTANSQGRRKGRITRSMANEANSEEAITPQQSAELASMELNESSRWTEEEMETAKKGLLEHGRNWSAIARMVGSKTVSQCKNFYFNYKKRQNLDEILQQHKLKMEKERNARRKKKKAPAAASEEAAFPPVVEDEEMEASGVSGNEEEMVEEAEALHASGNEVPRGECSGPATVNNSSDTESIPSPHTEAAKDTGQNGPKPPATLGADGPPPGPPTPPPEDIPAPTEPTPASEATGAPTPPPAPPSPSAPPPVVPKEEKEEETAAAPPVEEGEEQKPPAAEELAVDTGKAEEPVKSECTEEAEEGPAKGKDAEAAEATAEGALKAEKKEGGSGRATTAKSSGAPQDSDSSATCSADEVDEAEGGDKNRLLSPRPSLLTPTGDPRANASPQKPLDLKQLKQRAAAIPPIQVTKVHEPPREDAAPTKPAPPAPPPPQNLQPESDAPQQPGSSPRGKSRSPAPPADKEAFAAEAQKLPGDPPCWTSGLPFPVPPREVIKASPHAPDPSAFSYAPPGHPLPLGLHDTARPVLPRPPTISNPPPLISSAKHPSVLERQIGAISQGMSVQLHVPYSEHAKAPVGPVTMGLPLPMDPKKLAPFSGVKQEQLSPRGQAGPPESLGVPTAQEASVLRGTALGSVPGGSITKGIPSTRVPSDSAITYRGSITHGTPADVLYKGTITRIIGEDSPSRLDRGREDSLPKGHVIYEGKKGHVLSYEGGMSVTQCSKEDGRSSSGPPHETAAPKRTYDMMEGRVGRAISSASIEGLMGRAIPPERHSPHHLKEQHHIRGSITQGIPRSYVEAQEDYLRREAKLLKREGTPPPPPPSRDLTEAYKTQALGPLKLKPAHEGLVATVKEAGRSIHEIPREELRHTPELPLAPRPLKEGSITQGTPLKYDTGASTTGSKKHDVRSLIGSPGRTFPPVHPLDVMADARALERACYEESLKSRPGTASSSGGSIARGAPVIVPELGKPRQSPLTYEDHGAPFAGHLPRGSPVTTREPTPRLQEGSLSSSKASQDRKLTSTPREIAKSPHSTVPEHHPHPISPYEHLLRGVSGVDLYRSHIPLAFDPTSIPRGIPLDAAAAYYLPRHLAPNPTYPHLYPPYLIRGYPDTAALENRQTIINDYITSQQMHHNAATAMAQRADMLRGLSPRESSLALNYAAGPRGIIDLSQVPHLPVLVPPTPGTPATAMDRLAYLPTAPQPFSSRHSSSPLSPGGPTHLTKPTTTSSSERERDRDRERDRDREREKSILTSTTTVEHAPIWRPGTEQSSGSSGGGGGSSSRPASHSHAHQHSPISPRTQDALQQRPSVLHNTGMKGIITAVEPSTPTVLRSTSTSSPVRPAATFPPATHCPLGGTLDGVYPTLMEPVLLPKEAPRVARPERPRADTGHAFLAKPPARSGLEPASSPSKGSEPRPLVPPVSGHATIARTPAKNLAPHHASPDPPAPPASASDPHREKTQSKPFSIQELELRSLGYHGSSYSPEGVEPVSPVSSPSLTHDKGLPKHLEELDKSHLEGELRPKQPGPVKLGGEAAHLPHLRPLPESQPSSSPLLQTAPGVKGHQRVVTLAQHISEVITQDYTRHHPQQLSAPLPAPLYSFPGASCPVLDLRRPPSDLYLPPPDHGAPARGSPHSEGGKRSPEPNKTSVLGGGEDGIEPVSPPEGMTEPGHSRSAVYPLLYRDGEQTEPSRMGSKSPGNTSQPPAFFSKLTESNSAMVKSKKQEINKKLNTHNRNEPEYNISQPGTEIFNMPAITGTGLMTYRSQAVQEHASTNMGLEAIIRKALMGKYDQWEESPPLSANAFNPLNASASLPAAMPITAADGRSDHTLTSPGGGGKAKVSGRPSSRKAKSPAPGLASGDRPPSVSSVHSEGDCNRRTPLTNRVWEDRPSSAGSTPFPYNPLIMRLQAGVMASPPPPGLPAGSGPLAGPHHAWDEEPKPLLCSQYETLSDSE
- testDetails: Inhibition of C-terminal His-tagged full length recombinant human HDAC3/N-terminal GST-tagged NCOR2 (395 to 489 residues) expressed in baculovirus infected Sf9 insect cells using HDAC substrate 3 after 30 mins by fluorescence assay
pIC50: −log10 of the molar value.
measuredAttribute: pIC50

>>> numericvalue("C[C@@]12CSC(=N1)c1csc(n1)CNC(=O)C[C@@H](/C=C/CCS)OC(=O)[C@H](CCCCNC(=O)O[C@@H]1CC/C=C/CCC1)NC2=O")
8.96

---

- measuredTarget: UniProt Q9BY41
- Sequence (Q9BY41 whole entry): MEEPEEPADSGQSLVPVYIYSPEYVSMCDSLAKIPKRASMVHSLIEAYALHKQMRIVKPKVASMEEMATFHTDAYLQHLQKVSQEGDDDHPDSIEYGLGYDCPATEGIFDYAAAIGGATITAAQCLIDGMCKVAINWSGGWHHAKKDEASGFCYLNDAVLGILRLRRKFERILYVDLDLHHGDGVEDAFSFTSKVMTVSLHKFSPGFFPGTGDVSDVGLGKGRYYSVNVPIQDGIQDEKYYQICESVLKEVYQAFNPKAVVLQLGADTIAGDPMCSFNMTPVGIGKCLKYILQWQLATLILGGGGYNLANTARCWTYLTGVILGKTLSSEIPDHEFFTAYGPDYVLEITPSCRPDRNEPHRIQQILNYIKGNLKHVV
- testDetails: Inhibition of C-terminal His-tagged full length recombinant human HDAC8 expressed in baculovirus infected Sf9 insect cells using HDAC class 2a substrate 1 after 30 mins by fluorescence assay
measuredAttribute: IC50

>>> result("C[C@@]12CSC(=N1)c1csc(n1)CNC(=O)C[C@@H](/C=C/CCS)OC(=O)[C@H](CCCCNC(=O)O[C@@H]1CC/C=C/CCC1)NC2=O")
"1110 nM"
